test: chemical genetic growth profiling, strain panel (AID 1159580);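 further: tested at 20 µM; growth read once vehicle control cultures reached saturation at 30 °C; 1 = growth at the plate median or of vehicle wells; lower values mean less growth of the strain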; conditions: S. cerevisiae deletion strains, growth OD, locus YKR026C, strain gcn3, hits give low values
The whole screen tested about 5,500 compounds, of which about 2,000 (36%) were called active. Roughly 18% stayed inconclusive and do not appear here. Some of the results follow.
property.measured: normalized growth
// no unit, no text: just the number

// query What value of normalized growth has been recorded for this entry: `CCCCCN=C(N)N/N=C\c1c[nH]c2ccc(OC)cc12`
// result 1.01

// query What value of measured normalized growth is listed for `COc1c2c(cc3occ(-c4ccc5c(c4)OCO5)c(=O)c13)OC(C)(C)C=C2` ?
// result 0.999

// query normalized growth value for entry `Cc1ncc([N+](=O)[O-])n1CCO`
// result 0.984

// query GET /values?readout=normalized growth&item= `COc1cc(OC)c2c(=O)c(-c3ccc4c(c3)OCO4)coc2c1`
// result 0.98

// query Entry `CN1CCN(C(c2ccccc2)c2ccccc2)CC1` : reported normalized growth = ?
// result 0.992

// query Entry under review: `Cc1nccc2c1[nH]c1ccccc12` . Reported normalized growth?
// result 0.983

// query Return reported normalized growth; argument: OC[C@@H](O)C(O[C@@H]1O[C@H](CO)[C@H](O)[C@H](O)[C@H]1O)[C@H](O)[C@@H](O)CO (some centres not stated)
// result 0.985

// query Endpoint output: normalized growth of `Cn1c(=O)[nH]c(=O)c2[nH]cnc21` . Value?
// result 0.984

// query So what's the measured normalized growth for this one? `O=c1c(-c2ccc3c(c2)OCO3)coc2cc(O)ccc12`
// result 0.98

// query Requested field: normalized growth. Item: `COc1ccc2c(=O)c(-c3cc4c(cc3OC)OCO4)coc2c1`
// result 1.01

// query State the recorded normalized growth for this entry: `CC(C)=CCc1c(O)cc2occ(-c3ccc4c(c3)OCO4)c(=O)c2c1O`
// result 0.992

// query Which normalized growth value belongs to `COc1ccc2c(c1)[nH]c1c(C)nccc12` ?
// result 0.978

Origin of the recorded values: PubChem BioAssay AID1159580
